Tested on: MARIMO;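 note: after 48 h exposure read by CellTiter-Glo luminescence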
protocol: cell viability relative to vehicle control; higher = less cytotoxic
reported.conditions: 10 µM; SRSF2 genotype: SRSF2 wt/wt
Counter-ions that a name gives are not always drawn.
Exercise: for every item that follows, state its recorded cell viability.
The reply should contain only the number, in %.

Request: // map CN(C)CC(c1ccc(O)cc1)C1(O)CCCCC1 (stereo unspecified) [Desvenlafaxine] to recorded cell viability (system: MARIMO);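 note: after 48 h exposure read by CellTiter-Glo luminescence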
Response: 102

Request: // map CCCCCCCCCCCCCCCCOc1nc2ccc(C)cc2c(=O)o1 to recorded cell viability (system: MARIMO);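 note: after 48 h exposure read by CellTiter-Glo luminescence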
Response: 108

Request: // map CC[C@@]1(O)C(=O)OCc2c1cc1n(c2=O)Cc2cc3c(CN(C)C)c(O)ccc3nc2-1 [Topotecan] to recorded cell viability (system: MARIMO);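 note: after 48 h exposure read by CellTiter-Glo luminescence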
Response: 3.84

Request: // map O=C1CCCC(=O)C1C(=O)c1ccc(C(F)(F)F)cc1[N+](=O)[O-] to recorded cell viability (system: MARIMO);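 note: after 48 h exposure read by CellTiter-Glo luminescence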
Response: 109

Request: // map CN1C(=O)[C@@H](NC(=O)c2cc(Cc3ccccc3)on2)COc2ccccc21 to recorded cell viability (system: MARIMO);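 note: after 48 h exposure read by CellTiter-Glo luminescence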
Response: 102

Request: // map CC(C)CCCC(C)C1CCC2C3CCC4CC(O)CCC4(C)C3CCC12C (stereo unspecified) [Dihydrocholesterol] to recorded cell viability (system: MARIMO);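 note: after 48 h exposure read by CellTiter-Glo luminescence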
Response: 97.3

Request: // map CCCCN1CCCC[C@H]1C(=O)Nc1c(C)cccc1C [Levobupivacaine HCl] to recorded cell viability (system: MARIMO);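 note: after 48 h exposure read by CellTiter-Glo luminescence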
Response: 85.1

Request: // map CCCNC(=O)Nc1ccc(Oc2ncnc3cc(OC)c(OC)cc23)cc1Cl to recorded cell viability (system: MARIMO);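 note: after 48 h exposure read by CellTiter-Glo luminescence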
Response: 113

Request: // map CN1CC[C@H](c2c(O)cc(O)c3c(=O)cc(-c4ccccc4Cl)oc23)[C@H](O)C1 to recorded cell viability (system: MARIMO);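 note: after 48 h exposure read by CellTiter-Glo luminescence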
Response: 4.67

Request: // map Cc1cccc(Nc2nc(-c3ccncc3)cs2)c1 to recorded cell viability (system: MARIMO);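 note: after 48 h exposure read by CellTiter-Glo luminescence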
Response: 64.4

Request: // map CC1(C)[C@@H](O[C@H]2O[C@H](C(=O)O)[C@@H](O)[C@H](O)[C@H]2O[C@@H]2O[C@H](C(=O)O)[C@@H](O)[C@H](O)[C@H]2O)CC[C@]2(C)[C@H]3C(=O)C=C4[C@@H]5C[C@@](C)(C(=O)O)CC[C@]5(C)CC[C@@]4(C)[C@]3(C)CC[C@@H]12 [Dipotassium glycyrrhizinate] to recorded cell viability (system: MARIMO);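 note: after 48 h exposure read by CellTiter-Glo luminescence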
Response: 112

Request: // map CC(=O)N1CCN(CCOc2ccc(C3CCN(C4=Nn5c(nnc5C(F)(F)F)CC4)CC3)cc2)CC1 to recorded cell viability (system: MARIMO);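 note: after 48 h exposure read by CellTiter-Glo luminescence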
Response: 57.4

Request: // map CCOC(=O)Nc1ccc(NCc2ccc(F)cc2)nc1N [Flupirtine maleate] to recorded cell viability (system: MARIMO);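 note: after 48 h exposure read by CellTiter-Glo luminescence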
Response: 105

Request: // map CCc1cc(Nc2nc(-c3ccc(-n4cnc(C)c4)c(F)c3)cs2)c(C)cc1C to recorded cell viability (system: MARIMO);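 note: after 48 h exposure read by CellTiter-Glo luminescence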
Response: 101

Request: // map CC(C)CN(C[C@@H](O)[C@H](Cc1ccccc1)NC(=O)O[C@H]1CCOC1)S(=O)(=O)c1ccc(N)cc1 to recorded cell viability (system: MARIMO);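 note: after 48 h exposure read by CellTiter-Glo luminescence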
Response: 93.5

Request: // map C=CCc1ccc(O)c(-c2ccc(O)c(CC=C)c2)c1 to recorded cell viability (system: MARIMO);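 note: after 48 h exposure read by CellTiter-Glo luminescence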
Response: 92.7
